Assay: Microsomal stability, human liver microsomes (predicted hepatic clearance)
Details: predicted from in vitro microsomal stability data
# reported Predicted Hepatic Clearance (Pred. Cl.); entries follow
Use mL/min/kg as the unit, but write only the number.

Reference set, count: 6
>  <Compound>
N#Cc1ccc(COc2cccc(-c3cc(F)c(Cc4nc5ccc(C(=O)O)cc5n4CC45COCC4C5)cc3F)n2)c(F)c1 (stereo not shown)

>  <Measured metric>
Predicted Hepatic Clearance (Pred. Cl.)

>  <Units symbol>
mL/min/kg

>  <Reported>
1.83

$$$$
>  <Compound>
N#Cc1ccc(COc2nccc(-c3ccc(Cc4nc5ccc(C(=O)O)cc5n4Cc4ncco4)cc3F)n2)c(F)c1

>  <Measured metric>
Predicted Hepatic Clearance (Pred. Cl.)

>  <Units symbol>
mL/min/kg

>  <Reported>
6.33

$$$$
>  <Compound>
COCCn1c(Cc2cc(F)c(-c3cccc(OCc4ccc(C)cc4)n3)cc2F)nc2ccc(C(=O)O)cc21

>  <Measured metric>
Predicted Hepatic Clearance (Pred. Cl.)

>  <Units symbol>
mL/min/kg

>  <Reported>
6.17

$$$$
>  <Compound>
COCCn1c(Cc2cc(F)c(-c3cccc(OCc4ccc(C(F)(F)F)c(F)c4F)n3)cc2F)nc2ccc(C(=O)O)cc21

>  <Measured metric>
Predicted Hepatic Clearance (Pred. Cl.)

>  <Units symbol>
mL/min/kg

>  <Reported>
1.83

$$$$
>  <Compound>
COCCn1c(Cc2ccc(-c3ccc(C)c(OCc4ccc(C#N)cc4F)n3)cc2)nc2ccc(C(=O)O)cc21 (single isomer, unassigned)

>  <Measured metric>
Predicted Hepatic Clearance (Pred. Cl.)

>  <Units symbol>
mL/min/kg

>  <Reported>
2.17

$$$$
>  <Compound>
COCCn1c(Cc2ccc(-c3cccc(OCc4ccc(C#N)cc4F)n3)cc2-c2cc[nH]n2)nc2ccc(C(=O)O)cc21

>  <Measured metric>
Predicted Hepatic Clearance (Pred. Cl.)

>  <Units symbol>
mL/min/kg

>  <Reported>
10.8

$$$$

API: the following record is the query input.
Q: Name the recorded Predicted Hepatic Clearance (Pred. Cl.) for `COCCn1c(Cc2c(F)cc(-c3cccnc3OCc3ccc(C#N)cc3F)cc2F)nc2ccc(C(=O)O)cc21` .
Ans: 3.5

---

Test: Microsomal stability, human liver microsomes (predicted hepatic clearance)
Conditions: predicted from in vitro microsomal stability data
Measured metric: Predicted Hepatic Clearance (Pred. Cl.) (mL/min/kg)
Use mL/min/kg as the unit, but write only the number.

>  <Molecule>
COCCn1c(Cc2ccc(-c3cccc(OCc4ccc(C#N)cc4F)n3)cc2N)nc2ccc(C(=O)O)cc21

>  <Reported>
3.5

$$$$
>  <Molecule>
N#Cc1ccc(COc2nc(-c3cc(F)c(Cc4nc5c(F)cc(C(=O)O)cc5n4C[C@@H]4CCO4)cc3F)ncc2F)c(F)c1

>  <Reported>
4

$$$$

Q: Name the recorded Predicted Hepatic Clearance (Pred. Cl.) for C[C@@]1(Cn2c(Cc3cc(F)c(-c4cccc(OCc5ccc(C#N)cc5F)n4)cc3F)nc3ccc(C(=O)O)cc32)CCCO1 (racemic) .
Ans: 7.5

---

Molecular target: UniProtKB P43220
Test: GLP-1R activation: cAMP increase in CHO cells stably expressing GLP-1R
Assay type: cell-based
Conditions: cAMP increase, CHO cells stably expressing GLP-1R, 10 point dose response, 30 minutes incubation; read-out: EC50
# reported EC50; entries follow
Use nM as the unit, but write only the number.

Reference set, count: 3
>  <Chem smiles>
COCCn1c(Cc2cc(F)c(-c3cccc(OCc4ccc(C#N)cc4COC)n3)cc2F)nc2ccc(C(=O)O)cc21

>  <Target system>
UniProtKB P43220

>  <Reported>
13

$$$$
>  <Chem smiles>
N#CCC1(Cn2c(Cc3ccc(-c4cccc(OCc5ccc(C#N)cc5F)n4)c(F)c3)nc3c(F)cc(C(=O)O)cc32)CC1

>  <Target system>
UniProtKB P43220

>  <Reported>
0.14

$$$$
>  <Chem smiles>
COCCn1c(Cc2c(F)cc(-c3cccnc3OCc3ccc(C#N)cc3OC)cc2F)nc2ccc(C(=O)O)cc21

>  <Target system>
UniProtKB P43220

>  <Reported>
6.01

$$$$

Q: Name the recorded EC50 for `N#Cc1ccc(COc2ncc(F)c(-c3cc(F)c(Cc4nc5c(F)cc(C(=O)O)cc5n4CC4(CF)CC4)cc3F)n2)c(F)c1` .
Ans: 0.3

---

Molecular target: UniProt P43220
Test: GLP-1R activation: cAMP increase in CHO cells stably expressing GLP-1R
Format: cell-based
Conditions: cAMP increase, CHO cells stably expressing GLP-1R, 10 point dose response, 30 minutes incubation; read-out: EC50
pEC50: −log10 of the molar value.
Class yes: pEC50 at least 8. Class no: pEC50 below 8.

Some solved cases for reference:
>  <Chem smiles>
COCCn1c(Cc2ccc(-c3cccc(OCc4ccc(C#N)cc4F)n3)c(N)c2)nc2ccc(C(=O)O)cc21

>  <Target system>
UniProt P43220

>  <Category label>
no

$$$$
>  <Chem smiles>
N#Cc1ccc(COc2nc(-c3cc(F)c(Cc4nc5ccc(C(=O)O)cc5n4C[C@@H]4CCO4)c(F)c3F)ncc2F)c(F)c1

>  <Target system>
UniProt P43220

>  <Category label>
yes

$$$$
>  <Chem smiles>
COCCn1c(Cc2cc(F)c(-c3cccc(OCc4cccc(Br)c4)n3)cc2F)nc2ccc(C(=O)O)cc21

>  <Target system>
UniProt P43220

>  <Category label>
no

$$$$
>  <Chem smiles>
COCCn1c(Cc2cc(F)c(-c3cccc(OCc4ccc(C(F)F)cc4F)n3)cc2F)nc2ccc(C(=O)O)cc21

>  <Target system>
UniProt P43220

>  <Category label>
yes

$$$$

Q: Does pEC50 meet or surpass 8 for `N#Cc1ccc(COc2cccc(-c3cc(F)c(Cc4nc5ccc(C(=O)O)cc5n4Cc4ccns4)cc3F)n2)c(F)c1` ?
Ans: yes

---

Assay: Microsomal stability, human liver microsomes (predicted hepatic clearance)
Conditions: predicted from in vitro microsomal stability data
Measured metric: Predicted Hepatic Clearance (Pred. Cl.) (L/h/kg)
Use L/h/kg as the unit, but write only the number.

Reference set, count: 3
>  <Compound>
COCCn1c(Cc2ccc(-c3cccc(OCn4ccc(C#N)cc4=O)n3)cc2F)nc2ccc(C(=O)O)cc21 [Example 513]

>  <Predicted Hepatic Clearance (Pred. Cl.) [L/h/kg]>
0.31

$$$$
>  <Compound>
CO[C@H](C)Cn1c(Cc2ccc(-c3cccc(OCc4ccc(C#N)cc4F)n3)cc2F)nc2ccc(C(=O)O)cc21 [Example 327]

>  <Predicted Hepatic Clearance (Pred. Cl.) [L/h/kg]>
0.18

$$$$
>  <Compound>
COCCn1c(Cc2ccc(-c3cccc(OCc4ccc(C#N)cc4F)n3)c(N)c2)nc2ccc(C(=O)O)cc21 [Example 259]

>  <Predicted Hepatic Clearance (Pred. Cl.) [L/h/kg]>
0.2

$$$$

Q: Name the recorded Predicted Hepatic Clearance (Pred. Cl.) for COCCn1c(Cc2ccc(-c3cccc(OCc4ccc(COC)cc4F)n3)cc2F)nc2ccc(C(=O)O)cc21 [Example 845] .
Ans: 0.74

Q: Name the recorded Predicted Hepatic Clearance (Pred. Cl.) for COCCn1c(Cc2ccc(-c3cccc(OCc4ccc(C#N)cc4F)n3)cc2F)nc2ccc(C(O)CO)cc21 (racemic) [Example 582] .
Ans: 0.91

Q: Name the recorded Predicted Hepatic Clearance (Pred. Cl.) for N#Cc1ccc(COc2cccc(-c3cc(F)c(Cc4nc5ccc(C(=O)O)cc5n4Cc4cncs4)cc3F)n2)c(F)c1 [Example 706] .
Ans: 0.73

---

# reported EC50; entries follow
Target: GLP-1R (Homo sapiens)
Sequence (P43220 24-463): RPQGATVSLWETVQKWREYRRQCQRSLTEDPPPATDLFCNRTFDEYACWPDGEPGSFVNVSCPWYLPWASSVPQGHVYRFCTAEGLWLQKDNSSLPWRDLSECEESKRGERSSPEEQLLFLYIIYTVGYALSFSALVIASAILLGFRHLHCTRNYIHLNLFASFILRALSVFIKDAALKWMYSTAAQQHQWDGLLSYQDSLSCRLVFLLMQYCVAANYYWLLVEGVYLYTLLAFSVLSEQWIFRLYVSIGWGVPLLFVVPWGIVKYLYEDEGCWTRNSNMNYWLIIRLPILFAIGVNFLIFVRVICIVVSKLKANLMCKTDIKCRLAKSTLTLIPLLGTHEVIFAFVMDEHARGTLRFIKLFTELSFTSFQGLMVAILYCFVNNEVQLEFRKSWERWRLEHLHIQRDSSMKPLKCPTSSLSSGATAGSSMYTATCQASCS
Assay: GLP-1R activation: cAMP increase in CHO cells stably expressing GLP-1R
Type: cell-based
Conditions: cAMP increase, CHO cells stably expressing GLP-1R, 10 point dose response, 30 minutes incubation; read-out: EC50
Use nM as the unit, but write only the number.

Reference set, count: 5
>  <Compound>
O=C(O)c1cc(F)c2nc(Cc3cc(F)c(-c4cccc(OCc5ccc(Cl)nc5)n4)cc3F)n(C[C@@H]3CCO3)c2c1

>  <Units symbol>
nM

>  <EC50>
0.11

$$$$
>  <Compound>
COCCn1c(Cc2ccc(-c3cccc(OCc4ccc(C#N)cc4F)n3)cc2C#CC2CCOCC2)nc2ccc(C(=O)O)cc21

>  <Units symbol>
nM

>  <EC50>
64.7

$$$$
>  <Compound>
N#Cc1cc(F)c(COc2cccc(-c3ccc(Cc4nc5ccc(C(=O)O)cc5n4C[C@@H]4CCO4)c(F)c3)n2)cc1F

>  <Units symbol>
nM

>  <EC50>
0.56

$$$$
>  <Compound>
COCCn1c(Cc2cc(F)c(-c3cccc(OCc4ccc(Cl)cc4F)n3)cc2F)nc2ccc(C(=O)O)cc21

>  <Units symbol>
nM

>  <EC50>
1

$$$$
>  <Compound>
N#Cc1ccc(COc2cccc(-c3ccc(Cc4nc5ccc(C(=O)O)cc5n4Cc4ccon4)c(F)c3)n2)c(F)c1

>  <Units symbol>
nM

>  <EC50>
1.06

$$$$

Q: Name the recorded EC50 for `COCCn1c(Cc2ccc(-c3cccc(OCc4ccc(C(F)(F)F)nc4F)n3)cc2F)nc2ccc(C(=O)O)cc21` .
Ans: 100

Q: Name the recorded EC50 for `COCCn1c(Cc2cc(F)c(-c3ccnc(OCc4ccc(C#N)cc4F)n3)cc2F)nc2ccc(C(=O)O)cc21` .
Ans: 3.05

Q: Name the recorded EC50 for `COCCn1c(Cc2cc(F)c(-c3cccc(OCc4ccc(C#N)cc4F)n3)c(F)c2F)nc2ccc(C(=O)O)cc21` .
Ans: 4.55

Q: Name the recorded EC50 for COC(Cn1c(Cc2ccc(-c3cccc(OCc4ccc(C#N)cc4F)n3)cc2F)nc2ccc(C(=O)O)cc21)C(=O)Nc1nccs1 (single isomer, unassigned) [Example 338] .
Ans: 2510

Q: Name the recorded EC50 for `CC1(Cn2c(Cc3ccc(-c4cccc(OCc5ccc(C#N)cc5F)n4)cc3C#N)nc3ccc(C(=O)O)cc32)CC1` .
Ans: 62.2

Q: Name the recorded EC50 for `COCCn1c(Cc2ccc(-c3cccc(OCc4cccn(C)c4=O)n3)cc2F)nc2ccc(C(=O)O)cc21` .
Ans: 1930

Q: Name the recorded EC50 for `N#Cc1ccc(COc2nccc(-c3ccc(Cc4nc5c(F)cc(C(=O)O)cc5n4CC4(CF)CC4)cc3F)n2)c(F)c1` .
Ans: 0.4

Q: Name the recorded EC50 for `N#CCC1(Cn2c(Cc3ccc(-c4cccc(OCc5ccc(C#N)cc5F)n4)cc3F)nc3c(F)cc(C(=O)O)cc32)CC1` .
Ans: 0.08
